test: physchem
# pKa >= 6 gives condition met, anything below gives condition not met

>  <compound>
Cn1ccnc1 [Mlm, N-methylimidazole]

>  <label class>
condition met

$$$$
>  <compound>
Cc1ccncc1C [34-Lu, 3,4-lutidine]

>  <label class>
condition met

$$$$
>  <compound>
c1ccc2cnccc2c1 [isoquinoline]

>  <label class>
condition not met

$$$$
>  <compound>
c1ccc2nc3ccccc3cc2c1 [acridine]

>  <label class>
condition not met

$$$$

# ---- query compound ----
In: Please tell me: is the compound c1ccc2ncccc2c1 [quinoline] at or over 6 in terms of pKa?
Out: condition not met

* * *

experiment: physchem
# pKa (water) >= 6 gives rule met, anything below gives rule not met

>  <smiles repr>
c1ccc2c(c1)ccc1ncccc12

>  <label class>
rule not met

$$$$
>  <smiles repr>
Nc1ccncc1

>  <label class>
rule met

$$$$
>  <smiles repr>
CNc1ccncc1

>  <label class>
rule met

$$$$

# ---- query compound ----
In: Please tell me: is the compound `N#Cc1ccncc1` at or over 6 in terms of pKa (water)?
Out: rule not met

* * *

experiment: physchem
assay endpoint: pKa
Number only, please.

>  <smiles repr>
CC(C)(C)c1ccncc1

>  <assay endpoint>
pKa

>  <reported value>
5.99

$$$$
>  <smiles repr>
CCc1ccncc1

>  <assay endpoint>
pKa

>  <reported value>
6.04

$$$$

Kindly consider the entry below.
In: // lookup pKa for `Cc1cncc(C)c1`
Out: 6.14
